Tested on: UACC-257 melanoma
Assay: NCI-60 one-dose screen, 48 h
Conditions: 10 µM unless noted
About 83,000 compounds went through this panel and 20% of them were active in at least one assay; those are over-represented in the sample as a whole. Active and inactive are the calls of the source. How the source made its calls: active means growth percent below 10; inactive means the rest.
Classes used: y for active, n for inactive

COMPOUND: CC(=O)c1ccc2c(c1)c1ccccc1n2C
LABEL: n

COMPOUND: CCn1cc(C(=O)O)c(=O)c2cc(F)c(N3CCN(S(=O)(=O)c4ccc(Cl)cc4)CC3)cc21
LABEL: n

COMPOUND: NC(=O)c1c(Nc2ccccc2)nn2cc(-c3nc4ccccc4s3)c(N)nc12
LABEL: n

COMPOUND: CCCCCCCCCc1cc[n+](CC(=O)c2ccc([N+](=O)[O-])cc2)cc1
LABEL: y

COMPOUND: CCCCn1c(Cc2ccc(OC)cc2)nc2cc(OC)c(OC)cc2c1=O
LABEL: y

COMPOUND: COC1(OC)N=C(N)C2(C#N)C3(C(=O)Nc4ccccc43)C12C#N (stereo unspecified)
LABEL: n

COMPOUND: COc1cc(OC)c2c(=O)cc(-c3ccccc3)oc2c1
LABEL: n

COMPOUND: C#CCCCCCCC[C@@H]1OC(=O)[C@H]([C@@H](C)CC)NC(=O)[C@@H]([C@@H](C)CC)NC(=O)CC(=O)[C@@H]1C
LABEL: n

COMPOUND: N#Cc1c(N)nc(Nc2nc3ccccc3[nH]2)nc1-c1ccc(Cl)cc1
LABEL: n

COMPOUND: O=C(CBr)OCc1ccc([N+](=O)[O-])o1
LABEL: n

COMPOUND: CC(=O)/C(=C/c1ccc(-c2ccccc2)cc1)C(=O)c1ccccc1
LABEL: n

COMPOUND: COc1ccc2cnc(N)c(C#Cc3cc(C(=O)Nc4ccc(CN5CCN(C)CC5)c(C(F)(F)F)c4)cnc3C)c2c1
LABEL: n

COMPOUND: Cc1ccc([C@@H]2C[C@H](O)Cc3ccccc3N2)s1
LABEL: n

COMPOUND: COc1ccc(CN2C(=O)/C(=C\C(=O)c3ccc(OCCN4CCCC4)cc3)c3ccccc32)cc1
LABEL: n

COMPOUND: CC[C@@H](C)/C=C(C)/C=C/C(=O)c1c(O)c(-c2ccc(OC(=O)[C@@]34CC[C@@](C)(C(=O)O3)C4(C)C)cc2)cn(O)c1=O
LABEL: y

COMPOUND: C/C=C/C/C=C/[C@H](C)C[C@H](O)[C@@H]1C[C@@H]2O[C@H]2/C=C/[C@H](O)[C@@H](O)/C=C/C[C@H](C)CC(=O)O1
LABEL: n

COMPOUND: O=C(NCCNCCO)c1cc([N+](=O)[O-])cc([N+](=O)[O-])c1O
LABEL: n

COMPOUND: COc1ccc(-n2nnnc2-c2cn[nH]c2C(F)(F)F)cc1
LABEL: n

COMPOUND: C=CN(C)S(C)(=O)=O
LABEL: n

COMPOUND: [N-]=[N+]=Nc1ncc(-c2ccc(C(F)(F)F)cc2)c(NC2CCCCCC2)n1
LABEL: n

COMPOUND: O=C(CCCC(=O)Nc1ccc(Cn2nnc3cc(Cl)c(Cl)cc32)cc1)Nc1ccc(CN2N=NC3C=C(Cl)C(Cl)=CC32)cc1 (stereo unspecified)
LABEL: n

COMPOUND: COc1ccc2oc(=O)cc(CN3C(=O)S/C(=C\c4ccc(Cl)cc4)C3=O)c2c1
LABEL: n

COMPOUND: N#Cc1c2cccnc2c2nnc3cc(Cl)c(Cl)cc3n12
LABEL: n

COMPOUND: Cc1nnc(/N=C2\NC(=O)/C(=C/C=C/c3ccccc3)S2)s1
LABEL: n

COMPOUND: COc1ccc(/C=C2\SC(=O)N(Cc3cc(=O)oc4ccc(OC)cc34)C2=O)cc1
LABEL: n

COMPOUND: O=C(O)CS(=O)c1ccc(Cl)cc1 (stereo unspecified)
LABEL: n

COMPOUND: CCn1cnc(C[C@H](NC(=O)[C@@H](NC(=O)Nc2cc(C(F)(F)F)cc(C(F)(F)F)c2)C(C)(C)C)C(=O)OC)c1
LABEL: y

COMPOUND: O=C(/C(Br)=C/c1ccccc1)c1ccccc1
LABEL: y

COMPOUND: COc1cccc2c1nc1cccc(OC)c1[n+]2[O-]
LABEL: n

COMPOUND: O=[N+]([O-])c1ccc(-c2ncc(-c3ccc(O)cc3O)[nH]2)cc1
LABEL: y

COMPOUND: O=C1/C(=C\c2cn(-c3nc(N4CCOCC4)nc(N4CCOCC4)n3)c3ccccc23)c2ccccc2N1c1c(Cl)cccc1Cl
LABEL: n

COMPOUND: Nc1ccc(S(=O)(=O)c2ccc(NO)cc2)cc1
LABEL: n

COMPOUND: CN(C)CCOC(=O)C(C)(C)C
LABEL: n

COMPOUND: CCCCN(CCCC)CC(O)CN(CC)CC (stereo unspecified)
LABEL: n

COMPOUND: Brc1ccc(-c2nc3ccccc3s2)cc1
LABEL: n

COMPOUND: COc1ccc(C(=O)NCCNc2nccc(-c3c(-c4ccc(F)cc4)nc4sccn34)n2)cc1
LABEL: n

COMPOUND: Cc1ccc(S(=O)(=O)Nc2cccc(Cn3c(=O)[nH]c4ccc(Oc5ncccn5)cc4c3=O)c2)cc1
LABEL: n

COMPOUND: CCCCCCCCCCCCCCCCCC1=NCCN1CS(=O)(=O)O
LABEL: n

COMPOUND: O=C(/C=C/c1cccc(O)c1)c1cccc(-n2cc(-c3ccc(Cl)cc3)[nH]c2=O)c1
LABEL: n

COMPOUND: COc1ccccc1Cn1cc2c(c1)-c1oncc1CC2
LABEL: n

COMPOUND: COC1=CC(c2ccc[nH]2)=N/C1=C\c1[nH]c(C)c(C(=O)CCCCC(=O)NC(C)(C)C)c1C
LABEL: n

Taken from PubChem BioAssay (NCI).
